Just for reference, ChEMBL document CHEMBL1133106 is where these values come from.

The entries below come with measured Ki values attached.
measurement-target: Nitric oxide synthase 3 (Bos taurus, UniProt P29473)
Sequence (P29473 whole entry): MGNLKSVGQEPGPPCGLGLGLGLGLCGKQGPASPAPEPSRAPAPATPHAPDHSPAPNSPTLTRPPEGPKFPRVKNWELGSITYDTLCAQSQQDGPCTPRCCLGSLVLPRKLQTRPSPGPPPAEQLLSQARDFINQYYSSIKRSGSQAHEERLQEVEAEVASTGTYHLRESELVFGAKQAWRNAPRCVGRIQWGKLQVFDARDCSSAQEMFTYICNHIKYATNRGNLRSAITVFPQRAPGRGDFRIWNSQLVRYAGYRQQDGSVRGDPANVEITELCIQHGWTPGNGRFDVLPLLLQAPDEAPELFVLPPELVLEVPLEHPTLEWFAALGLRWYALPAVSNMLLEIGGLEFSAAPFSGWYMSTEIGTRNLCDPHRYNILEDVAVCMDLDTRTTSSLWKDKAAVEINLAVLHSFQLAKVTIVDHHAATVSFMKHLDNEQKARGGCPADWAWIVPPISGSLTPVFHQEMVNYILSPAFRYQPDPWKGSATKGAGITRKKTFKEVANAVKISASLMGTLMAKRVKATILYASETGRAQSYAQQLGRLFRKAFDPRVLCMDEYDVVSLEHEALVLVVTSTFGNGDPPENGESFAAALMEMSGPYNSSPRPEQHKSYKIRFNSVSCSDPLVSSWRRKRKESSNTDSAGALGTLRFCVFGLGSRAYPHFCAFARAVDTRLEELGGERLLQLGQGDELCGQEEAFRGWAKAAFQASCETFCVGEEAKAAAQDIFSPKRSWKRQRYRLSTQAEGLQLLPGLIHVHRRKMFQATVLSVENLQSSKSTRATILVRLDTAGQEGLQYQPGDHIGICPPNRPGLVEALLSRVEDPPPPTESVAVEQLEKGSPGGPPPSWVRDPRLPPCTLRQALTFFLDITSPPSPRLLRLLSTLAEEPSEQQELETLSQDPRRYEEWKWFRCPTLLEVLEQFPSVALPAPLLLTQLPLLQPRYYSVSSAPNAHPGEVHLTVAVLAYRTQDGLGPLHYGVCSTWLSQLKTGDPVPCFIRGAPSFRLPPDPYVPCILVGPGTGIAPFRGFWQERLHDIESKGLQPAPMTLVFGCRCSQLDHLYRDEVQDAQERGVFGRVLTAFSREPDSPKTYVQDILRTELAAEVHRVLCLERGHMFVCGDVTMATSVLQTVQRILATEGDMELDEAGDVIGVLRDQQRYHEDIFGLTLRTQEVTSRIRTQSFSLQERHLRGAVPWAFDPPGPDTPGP
Non-standard residues stand in square brackets, D forms with d. Residues, ends and D or L forms follow the SMILES beside them. *: point of attachment. Arg(NO2) = N=C(NCCC[C@H](N)C(=O)O)N[N+](=O)[O-]; NMeDab = CN[C@@H](CCN)C(=O)O; Dab = NCC[C@H](N)C(=O)O; Cbz = O=C(OCc1ccccc1)*

{"compound": "N=C(NCCC[C@H](NC(=O)OCc1ccccc1)C(=O)N[C@@H](CCN)C(N)=O)N[N+](=O)[O-] (Cbz-[Arg(NO2)]-[Dab]-NH2)", "Ki": "827 µM"}

[ask] # return Ki for "N=C(NCCC[C@H](N)C(=O)NCCCCN)N[N+](=O)[O-]" , test system: Nitric oxide synthase 3 (Bos taurus, UniProt P29473)
[reply] 70 µM

[ask] # return Ki for CC(=O)N[C@@H](CCCNC(=N)N[N+](=O)[O-])C(=O)N[C@@H](CCN)C(N)=O (Ac-[Arg(NO2)]-[Dab]-NH2) , test system: Nitric oxide synthase 3 (Bos taurus, UniProt P29473)
[reply] 263 µM

[ask] # return Ki for CN(C(=O)[C@@H](N)CCCNC(=N)N[N+](=O)[O-])[C@@H](CCN)C(N)=O (H-[Arg(NO2)]-[NMeDab]-NH2) , test system: Nitric oxide synthase 3 (Bos taurus, UniProt P29473)
[reply] 95 µM

====

experiment-notes: Ratio of binding affinity of eNOS to nNOS
Non-standard residues stand in square brackets, D forms with d. Residues, ends and D or L forms follow the SMILES beside them. *: point of attachment. Arg(NO2) = N=C(NCCC[C@H](N)C(=O)O)N[N+](=O)[O-]; Dab = NCC[C@H](N)C(=O)O; Cbz = O=C(OCc1ccccc1)*; OtBu = CC(C)(C)O*
recorded-endpoint: Ratio
Write the value as a bare number.

[ask] Consider the compound "CN(C(=O)[C@@H](N)CCC/N=C(\N)N[N+](=O)[O-])[C@@H](CCCN)C(N)=O" . State its measured Ratio.
[reply] 135

[ask] Consider the compound "NCCCNC(=O)[C@@H](N)CCC/N=C(\N)N[N+](=O)[O-]" . State its measured Ratio.
[reply] 163

[ask] Consider the compound "NCCN(CC(N)=O)C(=O)[C@@H](N)CCC/N=C(\N)N[N+](=O)[O-]" . State its measured Ratio.
[reply] 3

[ask] Consider the compound "NCCNC(=O)[C@@H](N)CCC/N=C(\N)N[N+](=O)[O-]" . State its measured Ratio.
[reply] 368

[ask] Consider the compound "CN(C(=O)[C@@H](N)CCC/N=C(\N)N[N+](=O)[O-])[C@@H](CCCCN)C(N)=O" . State its measured Ratio.
[reply] 86

[ask] Consider the compound COC(=O)[C@H](CCN)NC(=O)[C@@H](N)CCC/N=C(\N)N[N+](=O)[O-] (H-[Arg(NO2)]-[Dab]-OMe) . State its measured Ratio.
[reply] 798

[ask] Consider the compound "NCCCN(CC(N)=O)C(=O)[C@@H](N)CCC/N=C(\N)N[N+](=O)[O-]" . State its measured Ratio.
[reply] 3.5

[ask] Consider the compound "NCCCCNC(=O)[C@@H](N)CCC/N=C(\N)N[N+](=O)[O-]" . State its measured Ratio.
[reply] 200

[ask] Consider the compound "NCCCCN(CC(N)=O)C(=O)[C@@H](N)CCC/N=C(\N)N[N+](=O)[O-]" . State its measured Ratio.
[reply] 4

[ask] Consider the compound NCC[C@H](NC(=O)[C@@H](N)CCC/N=C(\N)N[N+](=O)[O-])C(=O)O (H-[Arg(NO2)]-[Dab]-OH) . State its measured Ratio.
[reply] 3.5

[ask] Consider the compound NCC[C@H](NC(=O)[C@H](CCC/N=C(\N)N[N+](=O)[O-])NC(=O)OCc1ccccc1)C(N)=O (Cbz-[Arg(NO2)]-[Dab]-NH2) . State its measured Ratio.
[reply] 16

[ask] Consider the compound CC(C)(C)OC(=O)[C@H](CCN)NC(=O)[C@@H](N)CCC/N=C(\N)N[N+](=O)[O-] (H-[Arg(NO2)]-[Dab]-OtBu) . State its measured Ratio.
[reply] 28

[ask] Consider the compound "CN(C(=O)[C@@H](N)CCC/N=C(\N)N[N+](=O)[O-])[C@@H](CCN)C(N)=O" . State its measured Ratio.
[reply] 40

[ask] Consider the compound CC(=O)N[C@@H](CCC/N=C(\N)N[N+](=O)[O-])C(=O)N[C@@H](CCN)C(N)=O (Ac-[Arg(NO2)]-[Dab]-NH2) . State its measured Ratio.
[reply] 9

====

The entries below come with measured pKi values attached.
measurement-target: Nitric oxide synthase 3 (Bos taurus, UniProt P29473)
Non-standard residues stand in square brackets, D forms with d. Residues, ends and D or L forms follow the SMILES beside them. *: point of attachment. Arg(NO2) = N=C(NCCC[C@H](N)C(=O)O)N[N+](=O)[O-]; Dab = NCC[C@H](N)C(=O)O; OtBu = CC(C)(C)O*
Just so you know, pKi here is -log10 of the concentration in molar units; reply with that number alone.

Use the examples below as a reference point.
{"molecule": "N=C(NCCC[C@H](N)C(=O)NCCCN)N[N+](=O)[O-]", "pKi": 3.67}
{"molecule": "NCCCCN(CC(N)=O)C(=O)[C@@H](N)CCC/N=C(\\N)N[N+](=O)[O-]", "pKi": 3.71}
{"molecule": "CN(C(=O)[C@@H](N)CCC/N=C(\\N)N[N+](=O)[O-])[C@@H](CCCN)C(N)=O", "pKi": 3.21}

[ask] Consider the molecule "CN(C(=O)[C@@H](N)CCC/N=C(\N)N[N+](=O)[O-])[C@@H](CCCCN)C(N)=O" . State its measured pKi.
[reply] 3.20

[ask] Consider the molecule "N=C(NCCC[C@H](N)C(=O)N(CCN)CC(N)=O)N[N+](=O)[O-]" . State its measured pKi.
[reply] 4.26

[ask] Consider the molecule "N=C(NCCC[C@H](N)C(=O)NCCN)N[N+](=O)[O-]" . State its measured pKi.
[reply] 3.70

[ask] Consider the molecule COC(=O)[C@H](CCN)NC(=O)[C@@H](N)CCCNC(=N)N[N+](=O)[O-] (H-[Arg(NO2)]-[Dab]-OMe) . State its measured pKi.
[reply] 3.33

[ask] Consider the molecule N=C(NCCC[C@H](N)C(=O)N[C@@H](CCN)C(=O)O)N[N+](=O)[O-] (H-[Arg(NO2)]-[Dab]-OH) . State its measured pKi.
[reply] 4.01

[ask] Consider the molecule CC(C)(C)OC(=O)[C@H](CCN)NC(=O)[C@@H](N)CCCNC(=N)N[N+](=O)[O-] (H-[Arg(NO2)]-[Dab]-OtBu) . State its measured pKi.
[reply] 3.54

[ask] Consider the molecule "N=C(NCCC[C@H](N)C(=O)N(CCCN)CC(N)=O)N[N+](=O)[O-]" . State its measured pKi.
[reply] 3.97
